Molecular target: UniProtKB Q9NR97
Sequence (Q9NR97 27-1041): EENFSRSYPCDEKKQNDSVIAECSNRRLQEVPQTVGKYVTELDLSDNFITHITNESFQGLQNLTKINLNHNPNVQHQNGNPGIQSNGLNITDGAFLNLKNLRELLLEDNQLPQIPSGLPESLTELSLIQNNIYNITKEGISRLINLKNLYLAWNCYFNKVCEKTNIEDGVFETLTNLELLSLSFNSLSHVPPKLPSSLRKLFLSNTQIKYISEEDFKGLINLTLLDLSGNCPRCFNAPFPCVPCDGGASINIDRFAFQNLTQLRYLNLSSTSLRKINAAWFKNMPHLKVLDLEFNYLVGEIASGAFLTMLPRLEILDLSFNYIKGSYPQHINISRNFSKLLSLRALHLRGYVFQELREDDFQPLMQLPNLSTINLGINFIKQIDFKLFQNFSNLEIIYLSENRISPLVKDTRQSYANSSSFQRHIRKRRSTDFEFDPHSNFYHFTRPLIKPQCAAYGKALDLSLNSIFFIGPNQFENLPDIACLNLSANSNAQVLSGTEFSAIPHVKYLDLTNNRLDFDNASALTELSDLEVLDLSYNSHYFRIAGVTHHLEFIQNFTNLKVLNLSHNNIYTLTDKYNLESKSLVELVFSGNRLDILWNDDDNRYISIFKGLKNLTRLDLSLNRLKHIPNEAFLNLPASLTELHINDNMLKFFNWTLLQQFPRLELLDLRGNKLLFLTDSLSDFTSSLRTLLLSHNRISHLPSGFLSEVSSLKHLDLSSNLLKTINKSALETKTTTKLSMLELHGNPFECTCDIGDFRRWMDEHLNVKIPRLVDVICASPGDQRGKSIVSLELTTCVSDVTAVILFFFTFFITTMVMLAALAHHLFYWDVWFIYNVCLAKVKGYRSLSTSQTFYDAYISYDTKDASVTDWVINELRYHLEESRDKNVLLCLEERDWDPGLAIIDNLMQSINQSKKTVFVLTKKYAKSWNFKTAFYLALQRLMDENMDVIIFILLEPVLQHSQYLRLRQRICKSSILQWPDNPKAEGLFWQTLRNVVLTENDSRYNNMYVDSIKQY
Assay: TLR8 inhibition reporter assay (HEK-Blue cells, SEAP reporter, R848 stimulation)
Conditions: HEK-Blue cells overexpressing human TLR8, SEAP reporter, R848 15.9 μM
pIC50: −log10 of the molar value.
measurement.label: pIC50

Illustrative cases are given below, each with its answer.
INSERT INTO results (compound, measurement_label, value_reported) VALUES
  ('Cc1cc(-c2[nH]c3ccc(C4CCN(C(=O)CN(C)C)CC4)cc3c2C(C)C)cn2nnnc12 [Example 477]', 'pIC50', '> 7.00'),
  ('CNC(=O)CN1CCC(c2ccc3[nH]c(-c4cc(OC)n5cc(C)nc5c4)c(C(C)C)c3c2)CC1 [Example 335]', 'pIC50', '4.30 to 6.00'),
  ('CC(C)c1c(-c2cnc3ncnn3c2)[nH]c2ccc(C3CCN(C4CCS(=O)(=O)CC4)CC3)cc12 [Example 798]', 'pIC50', '> 7.00');

Reported pIC50 ( CNC(=O)CN1CCC(c2ccc3[nH]c(-c4cc(C)c5nc(C)cn5c4)c(C(C)C)c3c2)CC1 [Example 391] ) = > 7.00

Reported pIC50 ( CC(C)c1c(-c2cn(C)c3ncccc23)[nH]c2ccc(C3CCN(CC(=O)N4CCOCC4)CC3)cc12 [Example 294] ) = > 7.00

Reported pIC50 ( CC(C)c1c(-c2cnc3ccnn3c2)[nH]c2ccc(C3CCN(C(=O)CN(C)C)CC3)cc12 [Example 502] ) = < 5.51

Reported pIC50 ( COC(=O)C1CC(N2CCC(c3ccc4[nH]c(-c5ccnc6[nH]ncc56)c(C(C)C)c4c3)CC2)CCN1 (stereo not drawn) [Example 825] ) = > 7.00

Reported pIC50 ( CC(C)c1c(-c2ccnc3[nH]ncc23)[nH]c2ccc(C3CCN(C(=O)C[C@H](C)N)CC3)cc12 [Example 637] ) = > 7.00

Reported pIC50 ( CCc1c(-c2ccnc3[nH]ncc23)[nH]c2ccc(C3CCN(C(=O)C4CCNCC4)CC3)cc12 [Example 647] ) = 6.00 to 7.00

Reported pIC50 ( CC(C)c1c(-c2ccc3cnnn3c2)[nH]c2ccc(C3CCN(C4CCOCC4)CC3)cc12 [Example 695] ) = > 7.00

Reported pIC50 ( CCc1c(-c2ccnc3[nH]nc(C)c23)[nH]c2ccc(C3CCN(Cc4cnc[nH]4)CC3)cc12 [Example 873] ) = > 7.00

Reported pIC50 ( CC(C)c1c(-c2ccc3ncnn3n2)[nH]c2ccc(C3CCN(C4COC4)CC3)cc12 [Example 729] ) = 6.00 to 7.00

Reported pIC50 ( Cc1cc(-c2[nH]c3ccc(C4CCN(C(=O)CCN5CC6(COC6)C5)CC4)cc3c2C(C)C)cn2nnnc12 [Example 631] ) = > 7.00

Reported pIC50 ( CC(C)c1c(-c2cnc3ccnn3c2)[nH]c2ccc(C3CCNCC3)cc12 [Example 181] ) = < 5.51

Reported pIC50 ( Cc1n[nH]c2nccc(-c3[nH]c4ccc(C5CCNCC5)cc4c3C(C)C)c12 [Example 227] ) = > 7.00

* * *

molecular target: human TLR8 (Homo sapiens, UniProt Q9NR97); test: TLR8 inhibition reporter assay (HEK-Blue cells, SEAP reporter, R848 stimulation); details: HEK-Blue cells overexpressing human TLR8, SEAP reporter, R848 15.9 μM
pIC50: −log10 of the molar value.
measurement.label: pIC50

Reported pIC50 ( CCN(CC)C(=O)C1CCCN(CC(=O)N2CCC(c3ccc4[nH]c(-c5ccnc6[nH]ccc56)c(C(C)C)c4c3)CC2)C1 (stereo not shown) [Example 568] ) = > 7.00

* * *

biological target: human TLR8 (Homo sapiens); assay: TLR8 inhibition reporter assay (HEK-Blue cells, SEAP reporter, R848 stimulation); conditions: HEK-Blue cells overexpressing human TLR8, SEAP reporter, R848 15.9 μM
Item-by-item account of IC50

Illustrative cases are given below, each with its answer.
INSERT INTO results (molecule, value_reported) VALUES
  ('Cc1cc(-c2[nH]c3ccc(C4CCNCC4)cc3c2C(C)C)cc2ccnn12 [Example 143]', '< 0.1 µM'),
  ('CCc1c(-c2ccnc3[nH]ccc23)[nH]c2ccc(C3CCNCC3)cc12 [Example 236]', '< 0.1 µM'),
  ('CNCCN1CCC(c2ccc3[nH]c(-c4ccnc5[nH]ncc45)c(C(C)C)c3c2)C(F)C1 (centres unmarked) [Example 679]', '< 0.1 µM'),
  ('CNC(=O)CN1CCC(c2ccc3[nH]c(-c4cc(C)n5cncc5c4)c(C(C)C)c3c2)CC1 [Example 440]', '< 0.1 µM'),
  ('CC(C)c1c(-c2cnc3c(cnn3C)c2)[nH]c2ccc(C3CCN(C(=O)CN(C)C)CC3)cc12 [Example 504]', '0.1 to 1 µM'),
  ('Cc1cn2cc(-c3[nH]c4ccc(C5CCN(C(=O)C[C@H](C)O)CC5)cc4c3CC(F)F)ccc2n1 [Example 608]', '> 3.13 µM'),
  ('Cc1c(-c2ccnc3cn[nH]c23)[nH]c2ccc(C3CCNCC3)cc12 [Example 55]', '1 to 50 µM');

Reported IC50 ( CC(C)c1c(-c2ccn3nccc3n2)[nH]c2ccc(C3CCN(CC(=O)N(C)C)CC3)cc12 [Example 425] ) = 0.1 to 1 µM

* * *

target: UniProt:Q9NR97; assay: TLR8 inhibition reporter assay (HEK-Blue cells, SEAP reporter, R848 stimulation); conditions: HEK-Blue cells overexpressing human TLR8, SEAP reporter, R848 15.9 μM
pIC50: −log10 of the molar value.
measurement.label: pIC50

Illustrative cases are given below, each with its answer.
INSERT INTO assay_data (compound, assay_target, measurement_label, value_reported) VALUES
  ('Cc1cc2cc(-c3[nH]c4ccc(C5CCN(C(=O)CN(C)C)CC5)cc4c3C(C)C)cc(CC(C)C)n2n1 [Example 524]', 'UniProt:Q9NR97', 'pIC50', '< 5.51'),
  ('CC(C)c1c(-c2ccnc3[nH]cnc23)[nH]c2ccc(C3CCNCC3)cc12 [Example 61]', 'UniProt:Q9NR97', 'pIC50', '> 7.00');

Reported pIC50 ( COc1c(C)c(-c2[nH]c3ccc(C4CCN(C5COC5)CC4)cc3c2C(C)C)nn2ncnc12 [Example 731] ) = > 7.00

Reported pIC50 ( CC(C)c1c(-c2n[nH]c3ncccc23)[nH]c2ccc(C3CCNCC3)cc12 [Example 18] ) = > 7.00

Reported pIC50 ( CCc1c(-c2ccnc3c(N)noc23)[nH]c2ccc(C3CCNCC3)cc12 [Example 239] ) = 6.00 to 7.00

Reported pIC50 ( CNC(=O)c1cn2cc(-c3[nH]c4ccc(C5CCN(CC(=O)N(C)C)CC5)cc4c3C(C)C)cc(C)c2n1 [Example 346] ) = > 7.00

Reported pIC50 ( Cc1cc(-c2[nH]c3ccc(C4CCNCC4)cc3c2C(C)C)cn2cc(C(=O)N(C)C)nc12 [Example 265] ) = > 7.00

Reported pIC50 ( CC(C)c1c(-c2cc3cn[nH]c3cn2)[nH]c2ccc(C3CCNCC3)cc12 [Example 179] ) = > 7.00
